The reported numbers originate from ChEMBL document CHEMBL3301361.

Assay: physchem
Details: octan-1-ol/water, pH 7.4, LogD7.4
experimental_endpoint: logD
Give bare numbers.

Sample answers from the record:
- COc1nccnc1NS(=O)(=O)c1ccc(N)cc1: -0.65
- N[C@@H](Cc1ccc(F)cc1)C(=O)O: -1.06
- O=C(NS(=O)(=O)c1cccc(Cl)c1)N1CCC(N2CCC(Oc3ccc(Cl)c(Cl)c3)CC2)CC1: 2.62

I have 3 compounds here; please give me logD for each one.
1. CC(=O)c1ccc(N2CCN(S(=O)(=O)C[C@]34CC[C@H](CC3=O)C4(C)C)CC2)nc1
2. CN(C(=O)Cc1ccc(C#N)cc1)C1CCN(CCC(c2ccccc2)c2ccccc2)CC1
3. Cc1occc(=O)c1OCc1ccccc1

Key:
[2.21, 3.7, 1.87]

I have 7 compounds here; please give me logD for each one.
1. Cc1cn([C@H]2CCCN(Cc3cccc(Oc4cccc(Br)c4)c3)C2)c(=O)[nH]c1=O
2. Cc1ccc(CO)cc1N(C)c1ccnc(Nc2cc(N3CCCCC3)cc(N3CCOCC3)c2)n1
3. COc1cc2ncc(C(N)=O)c(Nc3ccc(F)cc3)c2cc1OC
4. COc1ncc(-c2ccc3nccc(-c4ccnnc4)c3c2)cc1NS(=O)(=O)c1ccc(F)cc1F
5. Oc1ccc(-c2ccc3cc(O)ccc3c2)cc1
6. Cn1c(N)nc(CCc2cccc(-c3ccccc3)c2)cc1=O
7. O=C(NC[C@@H](O)CN1CCC(Oc2ccc(Cl)c(Cl)c2)CC1)c1cc(=O)[nH]c2ccccc12

Key:
[3.68, 4.2, 2.82, 2.5, 4, 3.8, 3.48]

====

Assay: physchem
Assignment: determine reported pKa for the given molecules.
Give bare numbers.

Sample answers from the record:
- COC(=O)c1cc2nc([S+]([O-])Cc3ncccc3C)[nH]c2cc1C (stereo unspecified): 8.1
- O=C(Nc1ccc(N2CCOCC2)c(F)c1)c1nnc(Nc2ccccc2F)o1: 8.61

I have 4 molecules here; please give me pKa for each one.
1. O=C(NS(=O)(=O)c1ccc(Cl)cc1)N1CCC(N2CCC(Oc3ccc(Cl)c(Cl)c3)CC2)CC1
2. CCc1cccc2c3c([nH]c12)C(CC)(CC(=O)O)OCC3 (stereo unspecified)
3. Nc1nc2c(ncn2CCC(CO)CO)c(=O)[nH]1
4. N#Cc1c(O)nc(N)nc1-c1ccccc1

Key:
[2.5, 4.15, 9.48, 6.52]

====

Experiment: physchem
Details: octan-1-ol/water, pH 7.4, LogD7.4
Assignment: determine reported logD for the given molecules.
Numbers only.

Sample answers from the record:
- CCCCC(CC)CNC(=O)c1cc(-n2ncc(=O)[nH]c2=O)ccc1Cl (stereo not given): 2.41
- Cn1c(=O)c(Oc2ccc(F)cc2F)cc2cnc(NC3CCOCC3)nc21: 2.76
- CC[C@H](NC(=O)c1c([S+](C)[O-])c(-c2ccccc2)nc2cc(F)ccc12)c1ccccc1 (stereo not given in full): 3.62
- Cc1nc(C)c(-c2ccc([C@H]3CC[C@@H](CC(=O)O)CC3)c(Cl)c2)nc1C(N)=O: 1.7

Exercise: Supply reported logD belonging to this molecule: CC1C(=O)Nc2ccccc2N1C(=O)c1ccccc1 (stereo not given)
Key: 2.11

====

Assay: in vitro
Settings: human, plasma, PPB
Assignment: determine reported fraction unbound at 5 h for the given compounds.
Numbers only.

Sample answers from the record:
- C[C@H](CN(C(=O)c1ccc(C#N)cc1)c1ccccn1)N1CCN(c2cccc3c2OCCO3)CC1: 0.009
- O=S(=O)(Nc1ncns1)c1cc(F)c(Oc2ccc(Cl)cc2-c2ccnn2C2CNC2)cc1F: 0.02
- CN1CCN(c2ccc3ncc(C(N)=O)c(Nc4ccc(F)cc4F)c3c2)CC1: 0.258
- Cc1[nH]c(C(=O)NC2CCN(c3ncc(C(=O)O)s3)CC2)c(Cl)c1Cl: 0.0293
- COc1ccc(Cl)cc1C(=O)NCCc1ccc(S(=O)(=O)NC(=O)NC2CCCCC2)cc1 [GLYBURIDE]: 0.0012

I have 8 compounds here; please give me fraction unbound at 5 h for each one.
1. CC[C@H](CO)Nc1nc(SCc2ccccc2)nc2nc(N)sc12
2. C[C@H](CO)Nc1nc(SCc2ccco2)nc2nc(N)sc12
3. CCOc1ccc(-n2c([C@@H](C)N(CC3CCN(C)CC3)C(=O)Cc3ccc(F)c(C(F)(F)F)c3)nc3ncccc3c2=O)cc1
4. COc1ccc2ncc(=O)n(CCN3CCC(NCc4cc5c(cn4)OCCO5)CC3)c2n1
5. Cc1ccccc1-n1c(Cn2nc(-c3ccc(O)c(F)c3)c3c(N)ncnc32)nc2cccc(C)c2c1=O
6. COc1ccc2ncc(=O)n(CCN3CC[C@H](NCc4ccc5c(n4)NC(=O)CO5)[C@H](O)C3)c2c1
7. Cc1ccc2c(c1)c(-c1ccnc3c(F)cccc13)c(C)n2CC(=O)O
8. O=C1NCCc2[nH]c(-c3ccncc3)cc21

Key:
1. 0.013
2. 0.117
3. 0.129
4. 0.465
5. 0.02
6. 0.137
7. 0.009
8. 0.586

I have 6 compounds here; please give me fraction unbound at 5 h for each one.
1. Cc1ncc(NC(=O)c2cc(NC(=O)c3cccc(Cl)c3)ccc2Cl)s1
2. Cc1cn([C@H]2CCCN([C@H](CC(C)C)c3ccc(C(=O)O)c(Oc4cccc(Cl)c4)c3)C2)c(=O)[nH]c1=O
3. CC(=O)Nc1ccc(-c2ccnc(Nc3ccc(N4CCOCC4)cc3)n2)cc1
4. C[C@H](CO)Nc1nc(SCc2cccc(F)c2F)nc2nc(NC3CC3)sc12
5. COc1cccc(-c2cc3c(N[C@H]4CCCNC4)ncc(C(N)=O)c3s2)c1
6. CCOc1noc2cc(OCCC3CCN(c4ccc(C)nn4)CC3)ccc12

Key:
1. 0.002
2. 0.0274
3. 0.0676
4. 0.0122
5. 0.0437
6. 0.0014

====

Assay: in vitro
Conditions: human, plasma, PPB
experimental_endpoint: fraction unbound at 5 h

Sample answers from the record:
- N#Cc1cnn2c(N)cc(-c3ccccc3)nc12: 0.0499
- Cc1cn([C@H]2CCCN([C@H](CC(C)(C)C)c3ccc(C(=O)O)c(Oc4cccc(Br)c4)c3)C2)c(=O)[nH]c1=O: 0.0287
- O=C(Nc1cccc2cccnc12)c1ccc(N2C(=O)[C@@H]3[C@H](C2=O)[C@@H]2C=C[C@H]3C2)cc1: 0.0111
- CC(C)C(=O)Nc1nc(-c2ccccn2)cc2ccccc12: 0.0245
- CO[C@H]1CN(CCn2c(=O)ccc3ccc(C#N)cc32)CC[C@H]1NCc1cc2c(cn1)OCCO2: 0.483

I have 5 compounds here; please give me fraction unbound at 5 h for each one.
1. Cc1c(S(=O)(=O)c2ccc(Cl)cc2)c2cc(F)ccc2n1CC(=O)O
2. O=C(NCc1ccc(F)c(C(F)(F)F)c1)C1c2ccccc2C(=O)N1CCc1ncc(F)cn1 (stereo not drawn)
3. N#Cc1c(-c2ccc(-c3cccnc3)cc2)nc2ccncc2c1O
4. COc1cnc(-c2cccc(F)c2C(F)(F)CNC(=O)c2ccc(COCC(F)(F)F)nc2)cn1
5. COCCOc1cc2ncc(C(N)=O)c(Nc3cccc(Cl)c3F)c2cc1N1CCN(C)CC1

Key:
1. 0.0043
2. 0.0477
3. 0.007
4. 0.0328
5. 0.392

I have 4 compounds here; please give me fraction unbound at 5 h for each one.
1. Cn1c(-c2cc(=O)c(O)c[nH]2)nn(S(=O)(=O)NC(=O)N2C[C@H](NC(=O)/C(=N\OC(C)(C)C(=O)O)c3csc(N)n3)C2=O)c1=O
2. COc1ccc2ncc(F)c(CCN3CCC(NCc4cc5c(cn4)OCCO5)CC3)c2n1
3. O=C(NCC12CC3CC(CC(C3)C1)C2)c1cc(C(=O)N2CC3CNCC(C2)O3)ccc1Cl
4. Cc1nn(-c2ccccc2)nc1C(=O)N[C@@H]1COc2cccc(N3CCN(C)CC3)c2C1

Key:
0.0447
0.173
0.309
0.0418

====

Assay: physchem
Conditions: octan-1-ol/water, pH 7.4, LogD7.4
Assignment: determine reported logD for the given compounds.
Give bare numbers.

Sample answers from the record:
* CCN1C(=O)N(C)c2cnc(Nc3ccc(C(=O)NC4CCN(C)CC4)cc3OC)nc2N1C1CCCC1 | 2.75
* CNc1c(Br)cnc2nc(-c3ccc(OCCCN4CCOCC4)cc3)[nH]c12 | 2.96
* CCC(c1nc2ccsc2c(=O)n1Cc1ccccc1)N(CCCN)C(=O)c1ccc(C(C)C)cc1 (stereo not given) | 2.72
* COc1ccc2ccc(=O)n(CCN3CCC(NCc4cc5c(cn4)OCCO5)CC3)c2c1 | 1.31

// next entry
Exercise: Supply reported logD belonging to this compound: "Cc1c(-c2ccc3c(c2)OCO3)c(=O)n(C[C@H](N)c2ccccc2)c(=O)n1Cc1c(F)cccc1F"
Key: 2.67

====

Assay: in vitro
Details: SD, HW or BN, rat, plasma
Assignment: determine reported fraction unbound at 5 h for the given compounds.
Answers are plain numbers.

Sample answers from the record:
- CN(C)N(C)C(=O)[C@@]1(Cc2ccccc2)CCCN(C(=O)[C@@H](Cc2c[nH]c3ccccc23)NC(=O)C(C)(C)N)C1: 0.16
- NCCCCN(Cc1nc2ccccc2[nH]1)[C@H]1CCCc2cccnc21: 0.244
- COc1cc(C)c(S(=O)(=O)N(C)CCOCC(=O)N2CCC(C3CCN(C)CC3)CC2)c(C)c1: 0.511

I have 6 compounds here; please give me fraction unbound at 5 h for each one.
1. Cc1ccccc1/N=N/c1ccc(NC(=O)c2ccnn2C)c(C)c1
2. Cc1ccccc1Nc1nc(N)nc(C)c1Br
3. O=C(NCc1ccccn1)c1cc(-c2ccccc2)nc2ccccc12
4. Cc1ccc(Sc2ccccc2CN(C)C)c(N)c1
5. Cc1nn(-c2ccccc2)c(NS(=O)(=O)C2CCCCC2)c1C(=O)N[C@@H](C)C(C)(C)C
6. CN(C)CCC1CCN(c2cc(C(=O)NC[C@H]3CC[C@H](COC(=O)NC(C)(C)C)CC3)c3ccccc3n2)CC1

Key:
1. 0.0017
2. 0.0752
3. 0.02
4. 0.0928
5. 0.0163
6. 0.0328
